- Target Under Test: OsWRKY34 (Oryza sativa, UniProt Q0JBA9 1-250)
- Sequence (Q0JBA9 entry or part of it): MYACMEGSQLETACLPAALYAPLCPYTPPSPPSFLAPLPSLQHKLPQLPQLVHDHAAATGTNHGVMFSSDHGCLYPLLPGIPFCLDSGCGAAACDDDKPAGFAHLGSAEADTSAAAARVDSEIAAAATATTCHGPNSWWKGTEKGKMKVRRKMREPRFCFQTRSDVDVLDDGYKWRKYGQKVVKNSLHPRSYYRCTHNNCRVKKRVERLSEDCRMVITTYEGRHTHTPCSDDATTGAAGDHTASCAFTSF
- Test Protocol: protein-binding microarray (RPBM); PBS, 2% BSA, 51.3 ng/ul salmon testes DNA, 50 uM zinc acetate, 200 nM TF, 25 C, 1 h; high values mean tight binding
- Test Parameters: protein: recombinant; tags: N-terminal polyhistidine and DsRed monomer fusion (pET32a); label: CyDye5-dUTP incorporated in the synthesized complementary strand; 3' TTTTT single-stranded linker to array surface; dsDNA, one strand shown
The full ranking holds about 68,000 sequences; the median of “fluorescence intensity (a.u.)” is about 9,100, and the highest 2% start at about 16,000. The sample as a whole holds a higher share of the highest values than the screen did.
Observable: binding signal

>>> observed_measurement("ACGCCATTGACTTTTTAGCAGATGTTTGACCGTTCGTTTTCGGAGTCACCTAGTGCAG")
"20700 fluorescence intensity (a.u.)"
>>> observed_measurement("GAGGTTAGCTCGCCTCTGATTGGGTTGGTTGGGTGGTCGGCGGAGTCACCTAGTGCAG")
"10100 fluorescence intensity (a.u.)"
>>> observed_measurement("CGTTTCTTGGCTGGTTTTCTTGGGCGGCGATCGATCGATGCGGAGTCACCTAGTGCAG")
"8140 fluorescence intensity (a.u.)"
>>> observed_measurement("TCTGGTTGATTGATCGATTTGGGGAATTGGGGATCTAGCTCGGAGTCACCTAGTGCAG")
"12000 fluorescence intensity (a.u.)"
>>> observed_measurement("CTTAGCTCGTATGTAGACTTTTGATGGCTTAATCCTATTTCGGAGTCACCTAGTGCAG")
"8550 fluorescence intensity (a.u.)"

Record binding signal for all entries; do not skip any.
1. GGTCTGGTTCTTCTTGATGCGAGGCTAGCTGACGTTTTTTCGGAGTCACCTAGTGCAG
2. GTGGGTTTTTTTTTTTGGTTTGTTTCTTCCTCTGGCCATTCGGAGTCACCTAGTGCAG
3. GTGGGTTTCTAGCATCATAGGGGTATTGTAGTAACTTCCTCGGAGTCACCTAGTGCAG
4. CGTGGGTAATTTGGTTCCTCTTCTTTTTTTGGCTTCCTTTCGGAGTCACCTAGTGCAG

1: 17200 fluorescence intensity (a.u.); 2: 19800 fluorescence intensity (a.u.); 3: 17400 fluorescence intensity (a.u.); 4: 8440 fluorescence intensity (a.u.)

###

- Target Under Test: OsWRKY34 (Oryza sativa, UniProt Q0JBA9 1-250)
- Test Protocol: protein-binding microarray (RPBM); PBS, 2% BSA, 51.3 ng/ul salmon testes DNA, 50 uM zinc acetate, 200 nM TF, 25 C, 1 h; high values mean tight binding
- Test Parameters: protein: recombinant; tags: N-terminal polyhistidine and DsRed monomer fusion (pET32a); label: CyDye5-dUTP incorporated in the synthesized complementary strand; 3' TTTTT single-stranded linker to array surface; dsDNA, one strand shown
The full ranking holds about 68,000 sequences; the median of “fluorescence intensity (a.u.)” is about 9,100, and the highest 2% start at about 16,000. What follows is part of a selection rich in the highest values, with near analogues and random picks from the rest.
Observable: binding signal

Sample answers from the record:
>>> observed_measurement("GAAGGGTGGGAGGGGAAGGGGAGGACGAGCGGGCGGACGGCGGAGTCACCTAGTGCAG")
"11500 fluorescence intensity (a.u.)"
>>> observed_measurement("TGGCCGGGAGGGTTGGCCCTTGTGGTTTCGGGGTTTGGTTCGGAGTCACCTAGTGCAG")
"15900 fluorescence intensity (a.u.)"
>>> observed_measurement("ACTAGTTGAAGGAGTTGGGGCTATAAATGGGTGGTGCTATCGGAGTCACCTAGTGCAG")
"10900 fluorescence intensity (a.u.)"
>>> observed_measurement("CACTTTATTTTTGAAAATTCGGGTGGGTAAGCTGGTGACTCGGAGTCACCTAGTGCAG")
"19200 fluorescence intensity (a.u.)"

Record binding signal for all entries; do not skip any.
1. TTGAATTGAATTATTATGCTCATCGCTTTCGCATAACCTCCGGAGTCACCTAGTGCAG
2. TGTTCTTGAGTTGCTTATATATGGCCTTCTAGCTCAGCTCCGGAGTCACCTAGTGCAG

["8320 fluorescence intensity (a.u.)", "8540 fluorescence intensity (a.u.)"]

Record binding signal for all entries; do not skip any.
1. GACGGCGACCGAAGGGGACAAGGAGGCGGGGCGGGGCGGCCGGAGTCACCTAGTGCAG
2. GGGAATATTAGTGGGATGGGGATGAGGAATTGAGGAAGAACGGAGTCACCTAGTGCAG
3. ATCCTCACGTAATATACACCTTCGTACCATAATATAATAACGGAGTCACCTAGTGCAG

1: 14000 fluorescence intensity (a.u.); 2: 13400 fluorescence intensity (a.u.); 3: 8250 fluorescence intensity (a.u.)

Record binding signal for all entries; do not skip any.
1. ATAAGATATTTTTGACTTTGGTCAAAGTCAAATTGTTTCACGGAGTCACCTAGTGCAG
2. TCTCTGCTTCTCGTTGTTCTTGGTTGGTTGTTGTTGTAGACGGAGTCACCTAGTGCAG

1. 15300 fluorescence intensity (a.u.)
2. 19400 fluorescence intensity (a.u.)

Record binding signal for all entries; do not skip any.
1. GGCCGCGGCGGTGCGACGAAGAGCGGCGTCGGACAAGGGCCGGAGTCACCTAGTGCAG
2. GGCTGGGCTTTTTGGGCTTTCTTTGATCTATATTTTGAGACGGAGTCACCTAGTGCAG
3. TAAGTTGTTTGACTTTTTTTCTAGTCAAACTTGTCTGAGTCGGAGTCACCTAGTGCAG

1: 35900 fluorescence intensity (a.u.); 2: 18200 fluorescence intensity (a.u.); 3: 17000 fluorescence intensity (a.u.)
